assay: amyloid nucleation score (Sup35N fusion, yeast selection) (log enrichment); library NNK1; higher = more nucleation; inactive = no reads after selection;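 note: zero at mode of non-aggregating sequences after 7 days selection at 30°C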
Hi there, I'd appreciate the recorded amyloid nucleation score for every entry that follows.
Reply: number alone, nothing else.

## Input Any idea what its amyloid nucleation score is? The substance is CRNWKWSRRFYYGERNGGRL
## Output 0.416

## Input Any idea what its amyloid nucleation score is? The substance is FYYYSEFLGPIVYPQHDLLL
## Output -0.1

## Input Any idea what its amyloid nucleation score is? The substance is GTHLYS
## Output 0.78

## Input Any idea what its amyloid nucleation score is? The substance is SSCNRRSHKP
## Output -0.471

## Input Any idea what its amyloid nucleation score is? The substance is FSVYVGVILCVSATVDVWAC
## Output 1.87

## Input Any idea what its amyloid nucleation score is? The substance is GKLPYVFRDCNKTVLVMALF
## Output 0.947

## Input Any idea what its amyloid nucleation score is? The substance is SQFYVLVIWLSCALSMGSSI
## Output -0.04

## Input Any idea what its amyloid nucleation score is? The substance is TYSVTFF
## Output 0.231

## Input Any idea what its amyloid nucleation score is? The substance is HLVKHVLCSKCTFDVLIIIY
## Output 1.08

## Input Any idea what its amyloid nucleation score is? The substance is RCYVDKSYNGDWASSAGQKH
## Output 0.065

## Input Any idea what its amyloid nucleation score is? The substance is TCLHYAVCMRSLVSQSALFV
## Output -0.771

## Input Any idea what its amyloid nucleation score is? The substance is MWHERVGDVTVAHSNVGVMI
## Output 3.85

## Input Any idea what its amyloid nucleation score is? The substance is WTWILPMVRTIIYQY
## Output -0.356

## Input Any idea what its amyloid nucleation score is? The substance is NRECYYRPGNALNHGFFQIL
## Output 0.479

## Input Any idea what its amyloid nucleation score is? The substance is MADFFIHCFLSSYCEWFIWR
## Output -0.283

## Input Any idea what its amyloid nucleation score is? The substance is GFVEVNTCLKEVSLPSNMPS
## Output 0.714

====

assay: amyloid nucleation score (Sup35N fusion, yeast selection) (log enrichment); library NNK2; higher = more nucleation; inactive = no reads after selection
Classification field: fulfilled = amyloid nucleation score at or over 1; not fulfilled = amyloid nucleation score under 1.

## Input Given the entry LFSSQLTATVRVPMSRNGLW , answer whether its amyloid nucleation score meets or surpasses 1.
## Output fulfilled

## Input Given the entry TVNLVFSTRG , answer whether its amyloid nucleation score meets or surpasses 1.
## Output fulfilled

## Input Given the entry YRKAGSSQTGNFLLLLLDGG , answer whether its amyloid nucleation score meets or surpasses 1.
## Output not fulfilled

## Input Given the entry IITMLGQEWAFGKLFDPLTL , answer whether its amyloid nucleation score meets or surpasses 1.
## Output not fulfilled

## Input Given the entry LFRFYCMIANCIVLQN , answer whether its amyloid nucleation score meets or surpasses 1.
## Output fulfilled

## Input Given the entry AYRWMDSSSTRFGTGLG , answer whether its amyloid nucleation score meets or surpasses 1.
## Output not fulfilled

## Input Given the entry VMLRYNSYGNYLLRWHTDDA , answer whether its amyloid nucleation score meets or surpasses 1.
## Output not fulfilled

## Input Given the entry TAGSTSSEADISLF , answer whether its amyloid nucleation score meets or surpasses 1.
## Output fulfilled

## Input Given the entry VQDQNRREAEVSSKGGTCSW , answer whether its amyloid nucleation score meets or surpasses 1.
## Output not fulfilled

## Input Given the entry LLFTLGNGGFSLRYKK , answer whether its amyloid nucleation score meets or surpasses 1.
## Output not fulfilled

## Input Given the entry GVTFSSMLRPFSAIAKRLVV , answer whether its amyloid nucleation score meets or surpasses 1.
## Output not fulfilled

## Input Given the entry ATFVIY , answer whether its amyloid nucleation score meets or surpasses 1.
## Output not fulfilled

## Input Given the entry SRNIMLGWVPWYYCWKAPSI , answer whether its amyloid nucleation score meets or surpasses 1.
## Output not fulfilled

## Input Given the entry TVLLMIMMYFIANSFYVACG , answer whether its amyloid nucleation score meets or surpasses 1.
## Output fulfilled

## Input Given the entry VLRIRLQAGEGKRCE , answer whether its amyloid nucleation score meets or surpasses 1.
## Output fulfilled

## Input Given the entry FMAWTDSLIYKHAICAATL , answer whether its amyloid nucleation score meets or surpasses 1.
## Output not fulfilled

## Input Given the entry CFFFISAVGPEILIVGFLGV , answer whether its amyloid nucleation score meets or surpasses 1.
## Output not fulfilled

## Input Given the entry DEMARVYIHY , answer whether its amyloid nucleation score meets or surpasses 1.
## Output not fulfilled

## Input Given the entry RFMFPRTSIVWNASYVVGVL , answer whether its amyloid nucleation score meets or surpasses 1.
## Output fulfilled

## Input Given the entry QDTFYEWCKNVHVLHTRFGV , answer whether its amyloid nucleation score meets or surpasses 1.
## Output not fulfilled

## Input Given the entry IVFSDLTITF , answer whether its amyloid nucleation score meets or surpasses 1.
## Output fulfilled

## Input Given the entry LAPVYEFEVWIHGIRGRCAW , answer whether its amyloid nucleation score meets or surpasses 1.
## Output fulfilled

## Input Given the entry TLKYSVVNTLMTSMHDF , answer whether its amyloid nucleation score meets or surpasses 1.
## Output fulfilled

## Input Given the entry ILLINCMFNQYSGC , answer whether its amyloid nucleation score meets or surpasses 1.
## Output fulfilled

## Input Given the entry LIGAATSKNVIRCNGWDGDQ , answer whether its amyloid nucleation score meets or surpasses 1.
## Output not fulfilled

## Input Given the entry RRRIRVCGSWFSGYN , answer whether its amyloid nucleation score meets or surpasses 1.
## Output not fulfilled

## Input Given the entry LRVMSVRYSICVKYNVEFRL , answer whether its amyloid nucleation score meets or surpasses 1.
## Output fulfilled

## Input Given the entry VAFIYCIV , answer whether its amyloid nucleation score meets or surpasses 1.
## Output fulfilled

## Input Given the entry AAIMDTKVWLPETWHTF , answer whether its amyloid nucleation score meets or surpasses 1.
## Output fulfilled

## Input Given the entry YTNVVYNYLRSCCGAWYGQR , answer whether its amyloid nucleation score meets or surpasses 1.
## Output fulfilled

## Input Given the entry LKWRVRWAIKED , answer whether its amyloid nucleation score meets or surpasses 1.
## Output not fulfilled

## Input Given the entry FLLRVSSSTKTRRSSGVDL , answer whether its amyloid nucleation score meets or surpasses 1.
## Output fulfilled

## Input Given the entry RAPFLKMCL , answer whether its amyloid nucleation score meets or surpasses 1.
## Output not fulfilled

## Input Given the entry LGYGRWCKVARPEYESGLTM , answer whether its amyloid nucleation score meets or surpasses 1.
## Output not fulfilled
